B1: CPEB3 Ribozyme (parent)
chain: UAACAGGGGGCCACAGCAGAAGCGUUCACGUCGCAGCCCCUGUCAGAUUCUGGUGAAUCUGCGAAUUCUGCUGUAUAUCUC

variants of: B1; test: self-cleavage, relative activity (ratio to wild type); higher = more cleavage; in vitro, sequencing
RECORDED_ENDPOINT: self-cleavage
Give the figure only, with no unit attached.

# self-cleavage of A13G U26C = 0.38

# self-cleavage of C23G U31C = 0.41

# self-cleavage of A28G G70A = 0.23

# self-cleavage of A15U C44G = 0.31

# self-cleavage of U43A A75U = 1.19

# self-cleavage of C37U G55U = 0.88

# self-cleavage of G24A U69G = 0.13

# self-cleavage of G8C U60A = 0.14

# self-cleavage of C12U U69C = 0.96

# self-cleavage of G63U U76A = 1.23

# self-cleavage of A2G G63U = 0.62

# self-cleavage of C32G U41A = 0.32

# self-cleavage of A75G U76C = 0.94

# self-cleavage of A15G G52A = 0.99

# self-cleavage of U72C G73A = 1.25

# self-cleavage of A28U C40A = 0.47

# self-cleavage of A20G C71U = 0.56

# self-cleavage of U41C C59U = 0.89

# self-cleavage of A15U A21C = 0.36

# self-cleavage of C37U A75G = 0.59

# self-cleavage of G9A A45U = 0.21

# self-cleavage of A28U G46U = 0.14

# self-cleavage of `A35C` = 0.85

# self-cleavage of U43C U69G = 0.43

# self-cleavage of U1C U48C = 0.41

# self-cleavage of A45G U67C = 0.34

# self-cleavage of A13C A18U = 0.25

# self-cleavage of U51G U60C = 0.39

# self-cleavage of G52C A56G = 1.12

# self-cleavage of G63A U78C = 0.82

# self-cleavage of U58C U60A = 0.26

# self-cleavage of A13U C34U = 0.43

# self-cleavage of U49G A77G = 0.39

# self-cleavage of C34U U48C = 0.47

# self-cleavage of A35G A47G = 1.26

# self-cleavage of A65U A77G = 0.2

# self-cleavage of A45C C62U = 0.36

# self-cleavage of A5G C38U = 0.46

# self-cleavage of A15C C34U = 0.29

# self-cleavage of C12U A21U = 1

# self-cleavage of C12G A45C = 0.12

# self-cleavage of A64U A65C = 0.13

# self-cleavage of A28C G61A = 0.48

# self-cleavage of C29G U60A = 0.29

# self-cleavage of C11U G33A = 0.42

# self-cleavage of U54C A77G = 1.07

# self-cleavage of U41C G53C = 1.13

# self-cleavage of U60G A77G = 0.47

# self-cleavage of G7U U78A = 0.48

# self-cleavage of `A5U` = 1.04

# self-cleavage of U26G C79U = 0.4

# self-cleavage of A13U A28U = 1.01

# self-cleavage of C40U U69C = 0.36

# self-cleavage of C17A U25C = 0.2

# self-cleavage of G6U A75G = 0.09

# self-cleavage of A20G G42A = 0.53

# self-cleavage of C44U U69C = 0.17

# self-cleavage of A35G A65U = 0.96

# self-cleavage of C38U U78C = 0.67

# self-cleavage of U25C C40U = 0.19

# self-cleavage of A3C G33C = 0.35

# self-cleavage of C12G A18U = 0.35

# self-cleavage of A3G C39A = 0.05

# self-cleavage of A5U A56G = 0.81

# self-cleavage of U25C A65U = 0.28

Data origin: the RNAGym collection of RNA variant scans (doi:10.1093/nar/gkz1192)
